# assayOverview: Unbound fraction in rat plasma at 1 mg/kg, iv measured after 24 hrs by HPLC-MS analysis
# Assay type: ADME, organism-based
valueKind: fraction unbound at 24 h
No unit in the answer, only the number.

A selection of reference data follows.
[
  {
    "recordSmiles": "NS(=O)(=O)c1c(CC2CCNCC2)ccc(-c2ccc(C3CCNCC3)cc2)c1-c1nn[nH]n1",
    "measValue": 0.8
  },
  {
    "recordSmiles": "Nc1nc2cccc(-c3ccc(C(F)(F)F)c(S(N)(=O)=O)c3-c3nnn[nH]3)c2[nH]1",
    "measValue": 0.065
  },
  {
    "recordSmiles": "NS(=O)(=O)c1c(C(F)(F)F)ccc([C@H]2CC[C@H](N)CC2)c1-c1nnn[nH]1",
    "measValue": 0.78
  }
]

Please look at the following molecule next.
Query: Item "Nc1ccc(-c2ccc(CC3CCNCC3)c(S(N)(=O)=O)c2-c2nn[nH]n2)cn1" has what recorded fraction unbound at 24 h?
Reply: 0.47

---

# testedOn: UniProt:P10632
# Sequence (P10632 whole entry): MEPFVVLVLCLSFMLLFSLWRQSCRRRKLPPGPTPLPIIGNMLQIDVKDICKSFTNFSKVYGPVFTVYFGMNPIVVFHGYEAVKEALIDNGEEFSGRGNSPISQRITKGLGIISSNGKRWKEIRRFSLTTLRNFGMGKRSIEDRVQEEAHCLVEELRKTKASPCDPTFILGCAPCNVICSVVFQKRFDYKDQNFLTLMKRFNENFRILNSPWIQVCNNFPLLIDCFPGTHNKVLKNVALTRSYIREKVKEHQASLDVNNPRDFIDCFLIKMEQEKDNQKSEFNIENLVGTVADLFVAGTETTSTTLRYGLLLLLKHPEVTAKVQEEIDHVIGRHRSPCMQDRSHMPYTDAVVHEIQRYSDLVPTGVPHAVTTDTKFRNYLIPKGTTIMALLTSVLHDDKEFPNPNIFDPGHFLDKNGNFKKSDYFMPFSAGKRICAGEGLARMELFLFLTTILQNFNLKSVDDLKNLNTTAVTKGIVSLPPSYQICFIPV
# assayOverview: Inhibition of CYP2C8 (unknown origin)
# Type: ADME
valueKind: IC50

Consider the following illustrative entries.
[
  {
    "recordSmiles": "Nc1nc2cccc(-c3ccc(C(F)(F)F)c(S(N)(=O)=O)c3-c3nnn[nH]3)c2[nH]1",
    "IC50": "> 50 µM"
  },
  {
    "recordSmiles": "NS(=O)(=O)c1c(CC2CCNCC2)ccc(-c2ccc(C3CCNCC3)cc2)c1-c1nn[nH]n1",
    "IC50": "> 50 µM"
  }
]

Query: Provide value of IC50 for this record tested with UniProt:P10632: "NS(=O)(=O)c1c(C(F)(F)F)ccc(-c2ccc(C3CCN(CC4CNC4)CC3)cc2)c1-c1nnn[nH]1"
Reply: > 50 µM

---

# assayOverview: Cmax in rat at 5 mg/kg, iv measured after 24 hrs by HPLC-MS analysis
# Type: ADME, organism-based
# experimentalContext: in vivo
Here the recorded Cmax is given for each entry.
Field format: number, assumed µM, no unit text.

[
  {
    "recordSmiles": "NS(=O)(=O)c1c(C[C@H]2CC[C@H](N)CC2)ccc(-c2ccc(C3CNC3)cc2)c1-c1nn[nH]n1",
    "endpointUnit": "µM",
    "Cmax": 84.3
  }
]

# context switch: different compound, same Cmax
Query: Suppose we examine the compound "NS(=O)(=O)c1c(C(F)(F)F)ccc(-c2ccc(C3CCN(CC4CNC4)CC3)cc2)c1-c1nnn[nH]1" ; what Cmax value has been reported?
Reply: 33.1

---

# assayOverview: MRT in rat at 1 mg/kg, iv measured after 24 hrs by HPLC-MS analysis
# Assay type: ADME, organism-based
# experimentalContext: in vivo
compounds and their reported MRT
Could you give the number and then its unit, please?

[
  {
    "recordSmiles": "Nc1ccc(-c2ccc(CC3CCNCC3)c(S(N)(=O)=O)c2-c2nn[nH]n2)cn1",
    "valueKind": "MRT",
    "measValue": "72.6 min"
  },
  {
    "recordSmiles": "Nc1nc2cccc(-c3ccc(C(F)(F)F)c(S(N)(=O)=O)c3-c3nnn[nH]3)c2[nH]1",
    "valueKind": "MRT",
    "measValue": "39.6 min"
  },
  {
    "recordSmiles": "NS(=O)(=O)c1c(CC2CCNCC2)ccc(-c2ccc(C3CCNCC3)cc2)c1-c1nn[nH]n1",
    "valueKind": "MRT",
    "measValue": "52.8 min"
  }
]

Query: Quick one: MRT for "NS(=O)(=O)c1c(C(F)(F)F)ccc([C@H]2CC[C@H](N)CC2)c1-c1nnn[nH]1" ?
Reply: 52.2 min

---

Each record here notes measured IC50.
# assayOverview: Inhibition of GST tagged VIM-2 (unknown origin) expressed in Escherichia coli BL21 Star (DE3) competent cells using CCF2-FA as substrate incubated for 2 hrs by fluorescence based analysis
Kindly provide the numeric value in nM only, without the unit symbol.

Query: Consider the molecule shown here: "Nc1ccc(-c2ccc(CC3CCNCC3)c(S(N)(=O)=O)c2-c2nn[nH]n2)cn1" What is its recorded IC50?
Reply: 140

Query: Which value of IC50 has been reported for "Nc1nc2cccc(-c3ccc(C(F)(F)F)c(S(N)(=O)=O)c3-c3nnn[nH]3)c2[nH]1" in the records?
Reply: 1.3

Query: Value lookup for IC50; key = "Nc1ccc(-c2ccc(C(F)(F)F)c(S(N)(=O)=O)c2-c2nn[nH]n2)cn1"
Reply: 3.1

Query: Endpoint output: IC50 of "Nc1nc2c(-c3ccc(C(F)(F)F)c(S(N)(=O)=O)c3-c3nn[nH]n3)cccc2s1" . Value?
Reply: 0.1

Query: IC50 for "NS(=O)(=O)c1c(C(F)(F)F)ccc(-c2ccc(C3CCN(CC4CNC4)CC3)cc2)c1-c1nnn[nH]1" ?
Reply: 62

Query: Bench note: what IC50 did "Nc1nc2c(-c3ccc(CC4CCNCC4)c(S(N)(=O)=O)c3-c3nn[nH]n3)cccc2s1" show?
Reply: 2.1

Query: What IC50 value was documented for this molecule, "NS(=O)(=O)c1c(CC2CCNCC2)ccc(-c2ccc(C3CCNCC3)cc2)c1-c1nn[nH]n1" ?
Reply: 1230

---

# assayOverview: Inhibition of GST tagged VIM-1 (unknown origin) expressed in Escherichia coli BL21 Star (DE3) competent cells using CCF2-FA as substrate incubated for 2 hrs by fluorescence based analysis
Here, each record is paired with measured IC50 data.
Hi! Could you send only the number? It should be in nM, unit omitted.

// worked examples, IC50 included
[
  {
    "compound": "NS(=O)(=O)c1c(C(F)(F)F)ccc([C@H]2CC[C@H](N)CC2)c1-c1nnn[nH]1",
    "measValue": 0.7
  },
  {
    "compound": "NS(=O)(=O)c1c(C(F)(F)F)ccc(-c2ccc(C3CCN(CC4CNC4)CC3)cc2)c1-c1nnn[nH]1",
    "measValue": 3.8
  },
  {
    "compound": "Nc1ccc(-c2ccc(CC3CCNCC3)c(S(N)(=O)=O)c2-c2nn[nH]n2)cn1",
    "measValue": 25
  }
]

Query: Please report the recorded IC50 for NC1CCC(N2CCC(c3ccc(-c4ccc(C(F)(F)F)c(S(N)(=O)=O)c4-c4nn[nH]n4)cc3)CC2)CC1 (centres undefined) .
Reply: 11

Query: # input compound: "Nc1ccc2cccc(-c3ccc(C(F)(F)F)c(S(N)(=O)=O)c3-c3nn[nH]n3)c2n1" ; wanted: its IC50
Reply: 0.4

Query: # lookup: IC50 of "NS(=O)(=O)c1cccc(-c2ccc(C3CCNCC3)cc2)c1-c1nn[nH]n1"
Reply: 19

Query: Entry under review: "NS(=O)(=O)c1c(Br)ccc(-c2ccc(C3CCNCC3)cc2)c1-c1nn[nH]n1" . Reported IC50?
Reply: 3

Query: IC50 lookup needed for "Nc1nc2cccc(-c3ccc(C(F)(F)F)c(S(N)(=O)=O)c3-c3nnn[nH]3)c2[nH]1" , thanks.
Reply: 0.3

Query: Which IC50 is reported for this compound? "NS(=O)(=O)c1c(CC2CCNCC2)ccc(-c2ccc(C3CCNCC3)cc2)c1-c1nn[nH]n1"
Reply: 5

---

The reader will find reported Cmax values listed item by item below.
# assayOverview: Cmax in rat at 1 mg/kg, iv measured after 24 hrs by HPLC-MS analysis
# Format: ADME, organism-based
# experimentalContext: in vivo
Give the value in µM but do not write µM after it.

[
  {
    "recordSmiles": "NS(=O)(=O)c1c(C(F)(F)F)ccc([C@H]2CC[C@H](N)CC2)c1-c1nnn[nH]1",
    "Cmax / µM": 12.7
  },
  {
    "recordSmiles": "Nc1ccc(-c2ccc(CC3CCNCC3)c(S(N)(=O)=O)c2-c2nn[nH]n2)cn1",
    "Cmax / µM": 16.3
  }
]

Query: Endpoint output: Cmax of "NS(=O)(=O)c1c(CC2CCNCC2)ccc(-c2ccc(C3CCNCC3)cc2)c1-c1nn[nH]n1" . Value?
Reply: 8.6

Query: Which Cmax is listed for "Nc1nc2cccc(-c3ccc(C(F)(F)F)c(S(N)(=O)=O)c3-c3nnn[nH]3)c2[nH]1" ?
Reply: 10.8

---

Each entry below lists one item and its recorded MRT value.
# assayOverview: MRT in rat at 5 mg/kg, iv measured after 24 hrs by HPLC-MS analysis
# Assay type: ADME, organism-based
# experimentalContext: in vivo
Quick reminder: number only, in h, skip the unit.

Query: Form field: reported MRT of "NS(=O)(=O)c1c(C(F)(F)F)ccc(-c2ccc(C3CCN(CC4CNC4)CC3)cc2)c1-c1nnn[nH]1"
Reply: 0.71

Query: Quick check: MRT of "NS(=O)(=O)c1c(C[C@H]2CC[C@H](N)CC2)ccc(-c2ccc(C3CNC3)cc2)c1-c1nn[nH]n1" ?
Reply: 3.13

Source listed as ChEMBL document CHEMBL5518207.
